Below, IC50 values reported for UniProt:Q8IW41 across several publications.

CC(C)(C)N1CCN(c2ccc(Nc3ncc(-c4cn[nH]c4)n4ncnc34)cc2)CC1 = 501 to 1000 nM

Record IC50 for all entries; do not skip any.
1. c1cncc(Nc2ncc(-c3cn[nH]c3)n3ccnc23)c1
2. O=C1NCc2cc(-c3cnc(NC4CCOCC4)c4ncnn34)ccc21
3. CN1CCN(c2ccc(Nc3ncc(-c4ccc(C(N)=O)s4)n4ccnc34)cc2)CC1
4. CN(C)C(CNC(=O)c1ccc(Nc2ncc(-c3cc[nH]c(=O)c3)n3ccnc23)cc1)c1cccnc1 (centres unmarked)
5. CC(C)N1CCN(c2ccc(Nc3ncc(-c4ccc5c(c4)CNC5=O)n4ncnc34)cn2)CC1
6. CC(C)N1C[C@@H]2C[C@H]1CN2c1cccc(Nc2ncc(-c3coc(C(N)=O)c3)n3ccnc23)c1
7. CCN(CC)CCNC(=O)c1ccc(Nc2ncc(-c3ccsc3)n3ccnc23)cc1

## Result
1: > 1000 nM; 2: > 1000 nM; 3: 101 to 500 nM; 4: 101 to 500 nM; 5: 1 to 100 nM; 6: 101 to 500 nM; 7: > 1000 nM

====

Compiled literature IC50, tested on MAPKAPK5 (Homo sapiens, UniProt Q8IW41).

CN1CCN(c2ccc(Nc3ncc(-c4ccc(C(N)=O)s4)n4ncnc34)cc2)CC1 = 501 to 1000 nM
CC(=O)Nc1ccc(Nc2ncc(-c3cn[nH]c3)n3ccnc23)cc1 = 501 to 1000 nM
CC(C)N1CCN(c2ccc(Nc3ncc(-c4csc(C(N)=O)c4)n4ncnc34)cn2)CC1 = 101 to 500 nM

List reported IC50 for each of these compounds:
1. O=C(NCC1CCCO1)c1ccc(Nc2ncc(-c3cn[nH]c3)n3ncnc23)cc1 (stereo not drawn)
2. NC(=O)c1ccc(-c2cnc(Nc3ccc4[nH]ccc4c3)c3nccn23)cc1

## Result
1. 501 to 1000 nM
2. > 1000 nM

Please give IC50, item by item, for the list that follows.
1. CNC(=O)C1CCN(C(=O)c2ccc(Nc3ncc(-c4cn[nH]c4)n4ncnc34)cc2)CC1
2. CC(C)N1CCN(c2ccc(Nc3ncc(-c4cc5c(cn4)C(=O)NC5)n4ncnc34)cc2)CC1
3. CC(C)N1CCN(c2ccc(Nc3ncc(-c4cc(F)c5c(c4)CNC5=O)n4ccnc34)cc2)CC1
4. O=C(c1ccc(Nc2ncc(-c3cn[nH]c3)n3ncnc23)cc1)N1CC=CC1
5. COc1cc(Nc2ncc(-c3cn[nH]c3)n3ncnc23)ccc1C(=O)NCc1ccccc1
6. CC(C)N1CCN(c2ccc(Nc3ncc(-c4cn[nH]c4)n4ncnc34)cc2C(F)(F)F)CC1

## Result
501 to 1000 nM
> 1000 nM
1 to 100 nM
501 to 1000 nM
> 1000 nM
> 1000 nM

// batch mode: one IC50 value per listed entry
1. O[C@H]1CC[C@H](Nc2ncc(-c3cn[nH]c3)n3ccnc23)CC1
2. O=C(N[C@H]1CCN(Cc2ccccc2)C1)c1ccc(Nc2ncc(-c3ccc4c(c3)CNC4=O)n3ncnc23)cc1
3. COCCN1CCC(c2ccc(Nc3ncc(-c4ccc5c(c4)CNC5=O)n4ncnc34)cc2)CC1
4. c1cn2c(-c3cn[nH]c3)cnc(Nc3ccc(N4CCOCC4)cn3)c2n1
5. CN1CCN(C(=O)c2ccc(Nc3ncc(-c4cn[nH]c4)n4ccnc34)cc2)CC1
6. CCN(CC)CCNC(=O)c1ccc(Nc2ncc(-c3cn[nH]c3)n3ccnc23)cc1F
7. O=C(NCCO)c1ccc(Nc2ncc(-c3cn[nH]c3)n3ccnc23)cc1

## Result
1. > 1000 nM
2. 101 to 500 nM
3. 1 to 100 nM
4. > 1000 nM
5. 101 to 500 nM
6. 501 to 1000 nM
7. 501 to 1000 nM

# return IC50 for each item in the list
1. O=C1NCc2cc(-c3cnc(NC4CCC(O)CC4)c4ncnn34)ccc21 (stereo not drawn)
2. CC(C)N1CCC(c2ccc(Nc3ncc(-c4cn[nH]c4)n4ncnc34)cc2)CC1
3. CN1CCN(c2ccc(Nc3ncc(-c4cn[nH]c4)n4ncnc34)cc2)CC1
4. CN1CCN(c2ccc(Nc3ncc(-c4ccnc(F)c4)n4ccnc34)cc2)CC1
5. CCN(CC)C(=O)c1cccc(Nc2ncc(-c3cn[nH]c3)n3ncnc23)c1
6. O=C(NCC1CCCCC1)c1cccc(Nc2ncc(-c3cn[nH]c3)n3ncnc23)c1

## Result
101 to 500 nM
501 to 1000 nM
> 1000 nM
> 1000 nM
> 1000 nM
> 1000 nM
